target: T1, human Claudin18.2 (human); experiment: FACS, Claudin18.2-HEK293 cells
T1 construct: also called CLDN18.2
parameterMeasured: Span
Numbers only.

Lab note: each binder below needs its Span filled in.
1. humanized 232C5E3-VL1.1 + VH1.2 (antibody, human IgG1, kappa, V domains shown, humanized, human IgG1/kappa constant regions) VH: QVQLVQSGAEVKKPGASVKVSCKASGYTFTSHNIHWIKQAPGQRLEWMGYIYPGNGGTNYNQKFKARVTITADTSASTAYMELSSLRSEDTAVYFCARDYYGNSFAYWGQGTLVTVSS VL: DIVMTQSPDSLAVSLGERATMSCKSSQSLLNSGNQKNYLTWYQQKPGQPPKLLIYWASTRESGVPDRFSGSGSGTDFTLTISSLQAEDVAVYYCQNGYRFPFTFGQGTKLEIKR
2. humanized 232C5E3-VL1.1 + VH1.1 (antibody, human IgG1, kappa, V domains shown, humanized, human IgG1/kappa constant regions) VH: QVQLVQSGAEVKKPGASVKVSCKASGYTFTSHNIHWVRQAPGQRLEWIGYIYPGNGGTNYNQKFKARATITADTSASTAYMELSSLRSEDTAVYFCARDYYGNSFAYWGQGTLVTVSS VL: DIVMTQSPDSLAVSLGERATMSCKSSQSLLNSGNQKNYLTWYQQKPGQPPKLLIYWASTRESGVPDRFSGSGSGTDFTLTISSLQAEDVAVYYCQNGYRFPFTFGQGTKLEIKR
3. humanized 207F8G5-VH1.3 + VL1.1 (antibody, human IgG1, kappa, V domains shown, humanized, human IgG1/kappa constant regions) VH: QVQLVQSGAEVKKPGASVKVSCKASGFTFTSYNIHWVRQAPGQGLEWIGYISPGNGGSNYNLKFKDRATMTSDTSISTAYMELSRLRSDDTAVYFCATGRGFAYWGQGTLVTVSS VL: DIVMTQSPDSLAVSPGERATMSCKSSQSLFNSGNQKNYLIWYQQKPGQPPKLLIYRASTRDSGVPDRFSGSGSGTDFTLTISSLQAEDVAVYYCQNDYSYPLTFGGGTKLEIKR
4. humanized 246B5F2-VH1 + VL1 (antibody, human IgG1, kappa, V domains shown, humanized, human IgG1/kappa constant regions) VH: EVQLLESGGGLVQPGGSLRLSCAASEFTFSNYAMSWVRQAPGKGLEWVSTISSGRSSTYYPDSVKGRFTISRDNSKNTLYLQMNSLRAEDTAVYYCAKLGRGNAMEYWGQGTLVTVSS VL: DIVMTQSPDSLAVSLGERATINCKSSQSLLNSGNQKNYLTWYQQKPGQPPKLLIYWASTRESGVPDRFSGSGSGTDFTLTISSLQAEDVAVYYCQNAYSYPFTFGGGTKLEIKR
5. humanized 246B5F2-VH1.1 + VL1 (antibody, human IgG1, kappa, V domains shown, humanized, human IgG1/kappa constant regions) VH: EVQLLESGGGLVQPGGSLRLSCAASEFTFSNYAMSWVRQAPGKRLEWVATISSGRSSTYYPDSVKGRFTISRDNSKNTLYLQMNSLRAEDTAVYYCAGLGRGNAMEYWGQGTLVTVSS VL: DIVMTQSPDSLAVSLGERATINCKSSQSLLNSGNQKNYLTWYQQKPGQPPKLLIYWASTRESGVPDRFSGSGSGTDFTLTISSLQAEDVAVYYCQNAYSYPFTFGGGTKLEIKR

Ans.
1: 57900; 2: 54900; 3: 13800; 4: 14200; 5: 10900
